# Tested on: HCT-15 colon
# Experiment: NCI tumour cell line growth inhibition, 48 h
Quantity Kind: TGI

{"Molecule": "Cc1nc2ccccc2c(=O)n1NC(=O)c1ccccc1[N+](=O)[O-]", "Tgt": "HCT-15 colon", "Observed": "> 100 µM"}
{"Molecule": "Cc1cc(Br)cc(C)c1NC(=O)C(=O)C(C(=O)c1ccncc1)C1OC(=O)c2ccccc21 (centres undefined)", "Tgt": "HCT-15 colon", "Observed": "> 100 µM"}
{"Molecule": "C=C1C(=O)[C@]23C[C@H]1C[C@@H](O)[C@H]2[C@]1(COC3=O)[C@@H](OC(C)=O)CC[C@@](C)(COC(C)=O)[C@H]1C=O", "Tgt": "HCT-15 colon", "Observed": "> 50 µM"}
{"Molecule": "CO[C@H]1CC[C@]2(C)C3=CC[C@@]4(C)C(CC[C@@H]4C(C)CC[C@@H](C)C(C)C)C(=CCC2C1)O3 (some centres undefined)", "Tgt": "HCT-15 colon", "Observed": "> 25 µM"}

---

# Test system: HL-60(TB) leukemia
# Experiment: NCI tumour cell line growth inhibition, 48 h
*1 amine or outer side, *2 acyl side, *3 side chain or, on linkers, in order; H or OH if unused. Where a SMILES comes first, the peptide text is derived from it. Bridges are numbered along the chain shown (N, C = ends). Roman numbers before positions name the chains, in order. [ ]: non-standard residue; d: D form. Actinocin(9to1) = Cc1c2oc3c(C)ccc(C(=O)[*:1])c3nc-2c(C(=O)[*:2])c(N)c1=O; NMeV = CN[CH](C(=O)O)C(C)C; Sar = CNCC(=O)O
Quantity Kind: TGI

{"Compound": "COc1ccc(OC)c(NC(=O)c2cccc(NC3=C(Cl)C(=O)N(Cc4ccccc4)C3=O)c2)c1", "Quantity Kind": "TGI", "Observed": "> 100 µM"}
{"Compound": "O=C1OC(c2ccccc2)(c2ccccc2)c2ccc3ccc(F)cc3c21", "Quantity Kind": "TGI", "Observed": "> 100 µM"}
{"Compound": "Nc1ncn(C2OC(COP(=O)(O)O)C(O)C2O)c(=O)n1 (configuration not stated)", "Quantity Kind": "TGI", "Observed": "> 100 µM"}
{"Compound": "Oc1cc(Cl)cc2cc(Cl)cnc12", "Quantity Kind": "TGI", "Observed": "0.902 µM"}
{"Compound": "Cc1c2oc3c(C)ccc(C(=O)OC(C)C4NC(=O)C(C(C)C)N(C)C(=O)CN(C)C(=O)C5CCCN5C(=O)C(C(C)C)NC4=O)c3nc-2c(C(=O)OC(C)C2NC(=O)C(C(C)C)N(C)C(=O)CN(C)C(=O)C3CCCN3C(=O)C(C(C)C)NC2=O)c(N)c1=O (configuration not stated) (I: cyclo([Sar][NMeV]TVP) / II: cyclo([Sar][NMeV]TVP); linker I:3-II:3 via Actinocin(9to1); configuration not given here)", "Quantity Kind": "TGI", "Observed": "0.212 µM"}
{"Compound": "CO[C@H]1CC[C@]2(C)C3=CC[C@@]4(C)C(CC[C@@H]4C(C)CC[C@@H](C)C(C)C)C(=CCC2C1)O3 (some centres not stated)", "Quantity Kind": "TGI", "Observed": "> 25 µM"}
{"Compound": "C[C@]12C(=O)C=CCC1=CC[C@@H]1[C@@H]2[C@H]2CC3(O)C(=O)O[C@@]4(C)[C@H]5C[C@@]6(C)[C@@H]7[C@@]2(O)[C@]1(OC[C@H]6C(=O)O5)O[C@]734 (some centres not stated)", "Quantity Kind": "TGI", "Observed": "> 100 µM"}
